Test: Quantitative highthroughput screen to assess conditional lethalithy of NOMO1 cells grown in Human Plasma-Like Medium with dialyzed fetal bovine serum (HPLM+ds) (AID 1963878); note: nearly all actives have a fitted effect of over 35% in size; note: potency is the fitted concentration of half-maximal effect
Settings: NOMO1 AML cells in HPLM+ds, CellTiter-Glo viability, 48 h; series mostly up to 45.8 µM
Results filed as inconclusive are left out. Calls of active or inactive are those of the source. Calls come from the whole dose curve; as a rule, active = well fitted cell-killing curve with a large enough effect; inconclusive = small, poorly fitted or top-dose-only effect, or effect the other way; inactive = no such curve, though single readings can be large or run the other way.
result type: Potency

{"compound": "C[C@@H]1[C@H](O)[C@@H](C)C=CC=CCCC=CC=CC=CC=C[C@H](O[C@H]2O[C@@H](C)[C@H](O)[C@@H](N)[C@@H]2O)CC2O[C@](O)(C[C@@H](O)[C@H](O)CC[C@@H](O)C[C@@H](O)C[C@@H](O)CC(=O)O[C@H]1C)C[C@H](O)[C@H]2C(=O)O", "measured result": "inactive"}
{"compound": "CC(C)(C)[C@]1(O)C[C@@H]2OC(=O)C[C@@]23C(=O)O[C@@H]2OC(=O)[C@H](O)C213 (stereo partly specified)", "measured result": "inactive"}
{"compound": "C[C@]12CCC(=O)C(O)=C1CC[C@@H]1[C@H]3CCC(=O)[C@@]3(C)CC[C@@H]12", "measured result": "inactive"}
{"compound": "N[C@@H](Cc1ccc(N(CCCl)CCCl)cc1)C(=O)O", "measured result": "7.43 µM (active)"}
{"compound": "C[C@]12CC[C@H]3[C@@H](CCC4=CC(=O)CC[C@@]43C)[C@H]1CC[C@H]2O", "measured result": "inactive"}
{"compound": "O=c1[nH]c2ccccc2n1CCCN1CCC(n2c(=O)[nH]c3cc(Cl)ccc32)CC1", "measured result": "inactive"}
{"compound": "Cc1nc(-c2ccc(-c3ccc(C(=O)N4CCc5cc6c(cc54)C4(CCN(C)CC4)CO6)cc3)c(C)c2)no1", "measured result": "inactive"}
{"compound": "CCC1(c2ccc(N)cc2)CCC(=O)NC1=O (stereo unspecified)", "measured result": "inactive"}
{"compound": "COc1ccc(CC2NCCc3cc(OC)c(OC)cc32)cc1OC (stereo unspecified)", "measured result": "inactive"}
{"compound": "O=C(O)CNC(=O)c1c(O)c2ccccc2n(Cc2ccccc2)c1=O", "measured result": "inactive"}
{"compound": "C[C@]12Cc3cn[nH]c3C[C@@H]1CC[C@@H]1[C@H]2CC[C@@]2(C)[C@H]1CC[C@]2(C)O", "measured result": "inactive"}
{"compound": "COC1=C[C@@H]2[C@@H]3Cc4ccc(OC)c(O)c4[C@]2(CCN3C)CC1=O", "measured result": "inactive"}
{"compound": "Cc1c(N)nc([C@H](CC(N)=O)NC[C@@H](N)C(N)=O)nc1C(=O)N[C@H](C(=O)N[C@@H](C)[C@H](O)[C@@H](C)C(=O)N[C@@H](C(=O)NCCc1nc(-c2nc(C(=O)NCCC[S+](C)C)cs2)cs1)[C@@H](C)O)C(O[C@H]1O[C@H](CO)[C@H](O)[C@@H](O)[C@@H]1O[C@H]1O[C@H](CO)[C@@H](O)[C@H](OC(N)=O)[C@H]1O)c1cnc[nH]1 (stereo partly specified)", "measured result": "0.935 µM (active)"}
{"compound": "Cc1sc2c(c1C)C(c1ccc(Cl)cc1)=N[C@@H](CC(=O)OC(C)(C)C)c1nnc(C)n1-2", "measured result": "0.418 µM (active)"}
{"compound": "O=C(O)c1nn(Cc2ccc(Cl)cc2Cl)c2ccccc12", "measured result": "inactive"}
{"compound": "Clc1ccccc1C(c1ccccc1)(c1ccccc1)n1cccn1", "measured result": "inactive"}
